- target.under.test: Calcium-dependent protein kinase 1 (Plasmodium falciparum (isolate 3D7)) (UniProt P62344)
- Sequence (P62344 whole entry, looked up): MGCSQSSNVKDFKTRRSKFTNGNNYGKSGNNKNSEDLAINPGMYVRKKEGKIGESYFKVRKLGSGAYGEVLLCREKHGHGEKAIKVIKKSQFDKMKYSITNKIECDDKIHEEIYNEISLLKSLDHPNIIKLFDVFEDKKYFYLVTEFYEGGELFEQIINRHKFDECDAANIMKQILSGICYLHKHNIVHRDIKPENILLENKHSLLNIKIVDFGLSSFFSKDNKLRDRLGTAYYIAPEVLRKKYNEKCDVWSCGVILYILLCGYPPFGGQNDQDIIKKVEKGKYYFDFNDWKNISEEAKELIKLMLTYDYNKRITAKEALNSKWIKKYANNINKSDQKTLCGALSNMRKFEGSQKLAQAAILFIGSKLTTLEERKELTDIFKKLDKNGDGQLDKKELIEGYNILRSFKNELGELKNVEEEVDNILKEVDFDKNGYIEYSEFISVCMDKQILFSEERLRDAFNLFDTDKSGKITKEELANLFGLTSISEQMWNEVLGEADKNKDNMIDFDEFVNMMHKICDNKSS
- procedure.details: PfCDPK1 kinase inhibitors, biochemical, TCAMS library (AID 1159585);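 further: inhibitors leave more ATP so luminescence rises with inhibition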
- condition.set: recombinant PfCDPK1, Kinase-Glo ATP depletion luminescence
Entries with a potency or affinity are not part of this list. Calls of active or inactive are those of the source. Cut-off not given; nearly all actives show IC50 up to about 0.98 µM.
property.measured: outcome

[[record]]
test_smiles = "Nc1nc(-c2ccc3c(Nc4ccc(F)c(Cl)c4)ccnc3c2)cs1"
target_under_test = "Calcium-dependent protein kinase 1 (Plasmodium falciparum (isolate 3D7)) (UniProt P62344)"
property_measured = "outcome"
value_measured = "inactive"

[[record]]
test_smiles = "Oc1ccc(-c2nc3c4cc(I)ccc4c4ccc(I)cc4c3[nH]2)cc1"
target_under_test = "Calcium-dependent protein kinase 1 (Plasmodium falciparum (isolate 3D7)) (UniProt P62344)"
property_measured = "outcome"
value_measured = "inactive"

[[record]]
test_smiles = "CCn1c(Sc2ccc(C#N)c([N+](=O)[O-])c2)nnc1-c1ccc(OC)cc1"
target_under_test = "Calcium-dependent protein kinase 1 (Plasmodium falciparum (isolate 3D7)) (UniProt P62344)"
property_measured = "outcome"
value_measured = "inactive"

[[record]]
test_smiles = "CC(C)COc1ccc(Cl)cc1Cc1ccc(-c2nc3c(F)cccc3[nH]2)o1"
target_under_test = "Calcium-dependent protein kinase 1 (Plasmodium falciparum (isolate 3D7)) (UniProt P62344)"
property_measured = "outcome"
value_measured = "inactive"

[[record]]
test_smiles = "N#Cc1ccc(CN2CCC(Oc3ccc(NC(=O)c4cccs4)cc3)CC2)cc1"
target_under_test = "Calcium-dependent protein kinase 1 (Plasmodium falciparum (isolate 3D7)) (UniProt P62344)"
property_measured = "outcome"
value_measured = "inactive"


Shifting focus to the compound that follows.
Fill in the blank: the reported outcome of CC(C)(C)C/C=C\c1ccc(C(=O)NCC2CC2)cc1 is ____.
inactive

---

- target.under.test: L-lactate dehydrogenase (Plasmodium falciparum (isolate CDC / Honduras))
- procedure.details: PfLDH activity inhibition – cell lysate, 3D7 strain, counter-screen for P. falciparum growth inhibition project (AID 2304);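 further: 0% = vehicle and 100% = reference inhibitor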
- condition.set: P. falciparum 3D7 crude extract, LDH APAD/NBT absorbance; at 2 µM; hits give high values
Assign inhibition to each entry below.
Please give a number only; it is taken to be in %.

Fill in the blank: the reported inhibition of CNC(=O)c1cnc(Nc2ccc(N3CCOCC3)cc2)nc1Nc1cccc(O)c1 is ____.
-2

Same question for CN1CCN(c2ccc(Nc3c4ccccc4nc4ccccc34)cc2)CC1 please.
-4

Same question for Cc1cccc2[nH]c(-c3cccc(-c4ccc(NC(=O)CCc5cnc[nH]5)cc4)c3)nc12 please.
6

Same question for Cn1c(CN2CCC(N3CCc4cc(NC(=O)c5ccco5)ccc43)C2)cc2ccccc21 (stereo not given) please.
-3

Same question for COc1ccc2ncc(F)c([C@@H](O)CN3CCC(NCc4cc(C#N)c5c(c4)CCO5)CC3)c2n1 please.
4

---

- procedure.details: antimalarial activity against Dd2 strain (AID 2302);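 further: 0% = DMSO untreated growth and 100% = chloroquine plus artemisinin killed control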
- condition.set: P. falciparum Dd2 in RBCs, LDH growth readout, 72 h; at 2 µM
Activity calls are given as the source filed them.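 Rule for the calls: active = growth inhibition above 50% at the single 2 µM test dose, taken to imply half-maximal potency below 2 µM; inactive = the rest.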
Respond only with the outcome that fits, drawn from active, inactive

Could you kindly confirm the outcome this assay logged for Cc1ccccc1C1CCN(C2CCC(NC(=O)c3cc4cc(Cl)ccc4o3)CC2)CC1 (stereo not given) ?
inactive

Same question for CCCCCCN1CCN(Cc2cccc(NC(=O)c3cc4ccccc4s3)c2)CC1 please.
active

Same question for CC(Oc1cc(-n2cnc3ccc(NC(=O)CCN4CCCCC4)cc32)sc1C(N)=O)c1ccccc1Cl (stereo not given) please.
active

Same question for Cc1cc(NN=Cc2ccc(F)cc2)c2cc(C(F)(F)F)ccc2n1 please.
active

Same question for CCCc1cccc(OC)c1OCCCON1C(N)=NC(N)=NC1(C)C please.
active

---

- procedure.details: human hepatoma cell viability loss – ATP luminescence, cytotoxicity control for P. falciparum antimalarial project, primary screen (AID 2303);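 further: 0% = DMSO wells and 100% = digitonin-killed cells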
- condition.set: HepG2 viability, 24-48 h, at 10 µM, hits give high values
inhibition vs 30%: less than gives condition met; not less than gives condition not met.

Please indicate whether the reported inhibition of Cc1ccc2nc(-c3ccc(C=CC(=O)NCc4ccc(Cl)c(Cl)c4)cc3)[nH]c2c1 is strictly below 30%.
condition met

Same question for CC(=O)Nc1cccc(/C=C/C(=O)N2CCC(N3CCCCC3)CC2)c1 please.
condition met

Same question for CCCCNC(=O)[C@H](CC1CCCCC1)NC(=O)c1ccc(O)c(-c2ccc(Cl)c(Cl)c2)c1 please.
condition met

Same question for CC(C)N(C(=O)CSc1nc2cc(Cl)ccc2c(=O)n1Cc1ccccc1)C(C)C please.
condition met

Same question for CC(=O)Nc1ccc(S(=O)(=O)N(Cc2cccc(Oc3ccccc3)c2)C2CCN(C/C=C(\C)CCC=C(C)C)CC2)cc1 please.
condition met

Same question for N#Cc1ccc(-c2ccc(C(=O)NCCCCN3CCC(c4nc5ccccc5[nH]4)CC3)cc2)cc1 please.
condition not met

Same question for CN1CCN(CC(=O)Nc2ccc(-c3ccc(-c4nc5ccc(C(F)(F)F)cc5[nH]4)cc3)cc2)CC1 please.
condition not met

Same question for CCC(C)NC(=O)Nc1ccc(-c2cccc(-c3nc4ccc(C(F)(F)F)cc4[nH]3)c2)cc1 (centres undefined) please.
condition not met

Same question for CC(CN1CCN(C)CC1)C(=O)Nc1cccc(-c2ccc(-c3nc4ccccc4[nH]3)s2)c1 (centres undefined) please.
condition met

Same question for Cc1c(Cn2ncc(N3CCC(N)CC3)c(Cl)c2=O)cccc1NC(=O)Nc1ccc(-c2ccccc2)cc1 please.
condition met

Same question for COc1cccc(NC(=O)c2nc(N3CCN(c4ccncc4)CC3)ccc2Cl)c1 please.
condition met

Same question for Cc1ccc2nc(Cl)c3cc(C(=O)NCCCN4CCCC4)sc3c2c1 please.
condition met

Same question for O=C(NCCc1ccccc1)N(Cc1ccccc1-c1cccc(CNCCc2ccccc2)c1)C1CCN(Cc2ccccc2)CC1 please.
condition not met

Same question for CC1CN=C(c2ccc(NC(=O)c3ccc(C(=O)Nc4ccc(C5=NCC(C)N5)cc4)cc3)cc2)N1 (centres undefined) please.
condition met

Same question for COc1ccccc1Nc1nc(C)cc(NCc2ccc(-n3ccnc3)cc2)n1 please.
condition met

Same question for CCN(CC)CCN(Cc1ccc(-c2ccc(C(F)(F)F)cc2)cc1)C(=O)Cn1c(CCc2cccc(F)c2F)nc(=O)c2cc(F)ccc21 please.
condition met

Same question for CC(=NNC(=S)Nc1ccccc1Cl)c1ccccn1 please.
condition not met

Same question for COc1ccc(C(C(=O)NC2CCN(C[C@H](O)c3ccnc4ccc(OC)cc34)CC2)N2CCN(c3ccc(F)cc3)CC2)cc1 (some centres undefined) please.
condition met

Same question for O=C(Nc1ccc(OC2CCN(Cc3ccc(F)cc3)CC2)cc1)c1cccs1 please.
condition met

---

- procedure.details: antimalarial activity against Dd2 strain (AID 2302);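 further: 0% = DMSO untreated growth and 100% = chloroquine plus artemisinin killed control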
- condition.set: P. falciparum Dd2 in RBCs, LDH growth readout, 72 h; at 2 µM
Active and inactive are the calls of the source.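 Rule for the calls: active = growth inhibition above 50% at the single 2 µM test dose, taken to imply half-maximal potency below 2 µM; inactive = the rest.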
Respond only with the outcome that fits, drawn from label 1 for active, label 0 for inactive

Could you kindly confirm the outcome this assay logged for CCNc1cc(C)nc(Nc2ccc(F)cc2)n1 ?
label 1

Same question for O=c1c(NCCCN(Cc2ccc(F)cc2)c2ccccn2)c(NCc2cccnc2)c1=O please.
label 1

Same question for Cc1c(Cl)cccc1S(=O)(=O)Nc1ccc(CCN2CCC(N)CC2)cc1 please.
label 0

Same question for Cc1cc(N(C)C)nc(Nc2ccc(NC(=O)Nc3ccccc3)cc2)n1 please.
label 1

Same question for Nc1nc(N)c2c(ccc3ccccc32)n1 please.
label 0

Same question for O=C1CCCN1CCCNCc1ccc(-c2ccc(-c3nc4ccc(F)cc4[nH]3)cc2)cc1 please.
label 1

Same question for CN(C)CCOc1ccc2c(c1)CN(C)CC2c1ccccc1 (stereo unspecified) please.
label 0

Same question for CCCc1cc(Cc2cnc(N)nc2N)cc(OC)c1OC please.
label 0

Same question for CCc1ccc(NC(=O)c2ccc(CN3CCCN(CCC(C)C)CC3)cc2)cc1 please.
label 0

Same question for CC1(C)N=C(N)N=C(N)N1OCCOc1ccc(Cc2ccccc2)cc1 please.
label 0

Same question for Cc1cc(-c2ccnc(Nc3cccc(C#N)c3)n2)cc(C)c1O please.
label 1

---

- procedure.details: inhibition of 3D7 malaria parasite growth – strain 3D7 (AID 2306);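 further: 0% = DMSO wells and 100% = chloroquine plus artemisinin control wells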
- condition.set: P. falciparum 3D7 erythrocytic growth, LDH absorbance, 72 h; at 2 µM; hits give high values
Calls of active or inactive are those of the source. No rule for the calls is given here.
property.measured: growth inhibition

Fill in the blank: the reported growth inhibition of NC1CCCN(Cc2cccc(-c3ccc(-c4nc5ccc(C(F)(F)F)cc5[nH]4)cc3)c2)C1 (centres undefined) is ____.
99% (active)

Same question for Oc1ccccc1CNCC12CC3CC(CC(C3)C1)C2 please.
98% (active)

Same question for CS(=O)(=O)NCCCNCc1cccc(-c2ccc(-c3nc4ccccc4[nH]3)s2)c1 please.
90% (active)

Same question for CS(=O)(=O)N(c1ccccc1)c1cc(C(=O)N[C@@H](Cc2ccccc2)[C@H](O)CNC2CCCCC2)cc(N2CCCC2=O)c1 please.
100% (active)

Same question for Nc1nc(N)c2c(ccc3c2ccn3Cc2ccc(-c3ccccc3)cc2)n1 please.
98% (active)

Same question for c1cc(CN2CCc3ccccc3CC2)cc(-c2c[nH]c3nc(NC4CCCC4)ncc23)c1 please.
99% (active)

Same question for Cc1ccc2c(Cl)c(C(=O)N3CCCc4ccccc43)sc2c1 please.
99% (active)

Same question for COc1ccc(C2C(C(=O)Nc3cc(OC)c(OC)c(OC)c3)c3cc(OC)c(OC)cc3C(=O)N2C)cc1 (centres undefined) please.
98% (active)

Same question for O=C(NCC1CCC1)c1cnc(Nc2cccc(Cl)c2)nc1N1CCC1 please.
98% (active)
